Reported furin enzyme pIC50 values for a set of molecules
biological target: Furin (108-574-Tev-Flag-His) enzyme (Homo sapiens); construct: Furin (108-574-Tev-Flag-His) enzyme was expressed and purified from CHO cells; TEV cleavage site (C); FLAG (C); His (C); made in house; host or cells: CHO cells; assay: Furin enzyme assay; assay type: biochemical
Sequence (P09958 108-574): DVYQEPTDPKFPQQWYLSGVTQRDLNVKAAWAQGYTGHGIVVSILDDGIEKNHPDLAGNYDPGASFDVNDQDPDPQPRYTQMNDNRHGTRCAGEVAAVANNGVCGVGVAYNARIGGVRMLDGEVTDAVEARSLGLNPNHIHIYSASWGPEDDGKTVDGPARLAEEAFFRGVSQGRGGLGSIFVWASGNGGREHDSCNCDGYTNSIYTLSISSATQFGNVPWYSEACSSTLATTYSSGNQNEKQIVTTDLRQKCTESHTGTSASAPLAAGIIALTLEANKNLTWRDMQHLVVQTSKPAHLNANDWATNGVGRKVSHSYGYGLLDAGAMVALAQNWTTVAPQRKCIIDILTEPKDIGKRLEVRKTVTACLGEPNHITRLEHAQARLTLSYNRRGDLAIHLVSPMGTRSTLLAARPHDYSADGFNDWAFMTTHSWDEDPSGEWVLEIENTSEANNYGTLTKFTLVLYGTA
Counter-ions that a name gives are not always drawn.
API doc: respond with a numeric literal and nothing else, no unit.

These solved cases illustrate the format of a correct answer.
{"molecule": "CNC(=O)CN1CCN(Cc2cc(Oc3ccc(N4CCNCC4)nc3)nc(-c3cc(Cl)cc(Cl)c3)c2)CC1 [Example 1, hydrochloride]", "value-observed": 8.3}
{"molecule": "CC(=O)NCC1CCN(Cc2cc(Oc3cnc(N4CCN(CCC(=O)O)CC4)nc3)cc(-c3cc(Cl)cc(Cl)c3)c2)CC1 [Example 168]", "value-observed": 9.3}

Problem: May I ask what furin enzyme pIC50 has been recorded for O=C(O)CC1CCN(Cc2cc(-c3cc(Cl)cc(Cl)c3)nc(Oc3cnc(N4CC5CCC(C4)N5)nc3)c2F)CC1 [Example 382] ?
Solution: 8.6
